test system: SR; test: NCI-60 one-dose screen; format: cell-based; conditions: Homo sapiens, Leukemia panel, single dose 10^−5 M, read-out: Growth inhibition %
Each entry gets not fulfilled if its inhibition at 10 µM stays under 90%, and fulfilled if its inhibition at 10 µM is 90% or above.

INSERT INTO assay_data (compound, study_system, class_label) VALUES
  ('Cc1ccc(CNc2c3ccccc3nc3ccccc23)cc1 [Compound 4, Acridin-9-yl-(4-methylbenzyl)-amine]', 'SR', 'fulfilled'),
  ('COc1cccc(CNc2c3ccccc3nc3ccccc23)c1OC [Compound 16, Acridin-9-yl-(2,3-dimethoxybenzyl)-amine]', 'SR', 'not fulfilled'),
  ('Fc1ccc(CNc2c3ccccc3nc3ccccc23)cc1 [Compound 10, Acridin-9-yl-(4-fluorobenzyl)-amine]', 'SR', 'fulfilled'),
  ('Cc1cccc(CNc2c3ccccc3nc3ccccc23)c1 [Compound 3, Acridin-9-yl-(3-methylbenzyl)-amine]', 'SR', 'fulfilled'),
  ('COc1ccc2nc3ccccc3c(NCc3ccccc3)c2c1 [Compound 25, Benzyl-(2-methoxyacridin-9-yl)-amine]', 'SR', 'fulfilled'),
  ('Clc1ccc(CNc2c3ccccc3nc3ccccc23)cc1 [Compound 13, Acridin-9-yl-(4-chlorobenzyl)-amine]', 'SR', 'fulfilled'),
  ('Fc1cccc(CNc2c3ccccc3nc3ccccc23)c1F [Compound 20, Acridin-9-yl-(2,3-difluorobenzyl)-amine]', 'SR', 'not fulfilled'),
  ('Cc1ccccc1CNc1c2ccccc2nc2ccccc12 [Compound 2, Acridin-9-yl-(2-methylbenzyl)-amine]', 'SR', 'fulfilled'),
  ('Fc1ccc(CNc2c3ccccc3nc3ccccc23)c(F)c1 [Compound 21, Acridin-9-yl-(2,4-difluorobenzyl)-amine]', 'SR', 'not fulfilled'),
  ('COc1ccc(CNc2c3ccccc3nc3ccccc23)cc1F [Compound 19]', 'SR', 'fulfilled'),
  ('COc1ccc(CNc2c3ccccc3nc3ccc(OC)cc23)cc1 [Compound 27]', 'SR', 'fulfilled'),
  ('c1coc(CNc2c3ccccc3nc3ccccc23)c1 [Compound 14, Acridin-9-yl-furan-2-ylmethyl-amine]', 'SR', 'not fulfilled'),
  ('Cc1ccc2nc3ccccc3c(NCc3ccc(Cl)cc3)c2c1 [Compound 31]', 'SR', 'fulfilled');
